Conditions: pH 2.7
Marks after values point to notes of the source that are not given here.
Quantity: log p

See these solved cases before continuing.
| Compound | log p |
| --- | --- |
| COc1ccc(Cn2cc(-c3ccncc3)c(-c3ccc(Cl)s3)n2)cc1 [Example 104] | 2.74^[b] |
| CC(C)=CCn1cc(-c2ccnc(NC(C)C)n2)c(-c2ccc(Cl)s2)n1 [Example 118] | 3.44^[b] |
| CC(C)n1cc(-c2ccnc(N=C(c3ccccc3)c3ccccc3)c2)c(-c2ccc(Cl)s2)n1 [Example 310] | 4.46^[b] |
| COCn1cc(-c2ccncc2)c(-c2sccc2Cl)n1 [Example 129] | 0.95^[b] |
| CCC(C)n1cc(-c2ccnc(NC(=O)C(C)C)c2)c(-c2ccc(Cl)s2)n1 (stereo not shown) [Example 234] | 3.63^[b] |

Which log p reading was recorded for the compound C=CC(C)n1cc(-c2ccncc2)c(-c2ccc(Cl)s2)n1 (racemic) [Example 61] ?
1.91^[b]

Now this one: CC(C)n1ncc(-c2ccncn2)c1-c1ccc(Cl)s1 [Example 30]
2.94^[b]

Now this one: CCC(C)n1cc(-c2cc[n+]([O-])cc2)c(-c2ccc(Cl)s2)n1 (stereo not shown) [Example 92]
2.56^[b]

Now this one: C#CCNc1cc(-c2cn(CC(C)C)nc2-c2ccc(Cl)s2)ccn1 [Example 112]
2.30^[b]

Now this one: FC(F)(F)Cn1cc(-c2ccncc2)c(-c2sccc2Cl)n1 [Example 138]
1.39^[b]

Now this one: CC(C)n1cc(-c2ccncc2)c(-c2ccc(Cl)s2)n1 [Example 38]
1.88^[b]

Now this one: Fc1cccc(Cn2cc(-c3ccncc3)c(-c3ccc(Cl)s3)n2)c1F [Example 325]
2.39^[b]

----------
// reported % Inhibition of DON/AcDON at 50 μM per item
Test system: Fusarium graminearum
Type: cell-based
Settings: 50 μM; 7 days at 28° C.
Provide only the numeric value, understood in %.

See these solved cases before continuing.
| Compound | Quantity | Observed Measurement |
| --- | --- | --- |
| Clc1ccc(Cn2cc(-c3ccncc3)c(-c3ccc(Cl)s3)n2)s1 | % Inhibition of DON/AcDON at 50 μM | 94 |
| CCC(C)n1ncc(-c2ccncc2)c1-c1ccc(F)s1 (stereo not drawn) | % Inhibition of DON/AcDON at 50 μM | 100 |
| CCOC(=O)Nc1cc(-c2cn(CC)nc2-c2ccc(Cl)s2)ccn1 | % Inhibition of DON/AcDON at 50 μM | 87 |
| CC(C)C(=O)Nc1cc(-c2cn(C(C)C)nc2-c2ccc(Cl)s2)ccn1 | % Inhibition of DON/AcDON at 50 μM | 99 |

Query for Fusarium graminearum: what % Inhibition of DON/AcDON at 50 μM does the record show for CCC(C)n1cc(-c2ccnc(NC(C)=O)c2)c(-c2ccc(Cl)s2)n1 (stereo not drawn) ?
100

Now this one: Fc1ccc(-c2nn(C3CCCC3)cc2-c2ccncc2)s1
98

Now this one: Fc1ccc(-c2nn(CC(F)(F)F)cc2-c2ccncc2)s1
99

Now this one: CC(=O)Nc1cc(-c2cn(C(C)C)nc2-c2ccc(Cl)s2)ccn1
99

Now this one: Cn1cc(-c2ccnc(NC(=O)CC3CC3)c2)c(-c2ccc(Cl)s2)n1
99
